Value source: paper PMC9359528

- target.entity: T1, WT Rad9A 134-266 (Homo sapiens, UniProt Q99638 134-266)
- T1 sequence: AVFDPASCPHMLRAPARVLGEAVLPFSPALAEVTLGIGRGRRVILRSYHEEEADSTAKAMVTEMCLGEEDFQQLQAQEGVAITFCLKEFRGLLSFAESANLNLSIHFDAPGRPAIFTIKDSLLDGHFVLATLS
- assay.notes: EMSA; EMSA: 20 mM Tris-HCl pH 7.6, 80 mM NaCl, 1 mM DTT, 1 mM EDTA, 1.5% glycerol, 200 ng/ml poly dI/dC, 50 ug/ml BSA, 10 nM DNA; 6% native PAGE in 50 mM Tris-borate
- test.settings: protein: recombinant; tags: N-terminal His; label: 5'-fluorescein (6-carboxyfluorescein) on HC40; blunt
parameter: pKd
On this scale, pKd is minus log10 of a concentration expressed in M (mol/L).

# input Quick one: pKd of HC40/HG40 (dsDNA) DNA 1: CCGAGGAATTCGCCTTCTGCTCCATAGCCACTGGTTGTAG DNA 2: CTACAACCAGTGGCTATGGAGCAGAAGGCGAATTCCTCGG ?
# output 5.52
